Biological target: UniProt:P08909
Sequence (P08909 33-460): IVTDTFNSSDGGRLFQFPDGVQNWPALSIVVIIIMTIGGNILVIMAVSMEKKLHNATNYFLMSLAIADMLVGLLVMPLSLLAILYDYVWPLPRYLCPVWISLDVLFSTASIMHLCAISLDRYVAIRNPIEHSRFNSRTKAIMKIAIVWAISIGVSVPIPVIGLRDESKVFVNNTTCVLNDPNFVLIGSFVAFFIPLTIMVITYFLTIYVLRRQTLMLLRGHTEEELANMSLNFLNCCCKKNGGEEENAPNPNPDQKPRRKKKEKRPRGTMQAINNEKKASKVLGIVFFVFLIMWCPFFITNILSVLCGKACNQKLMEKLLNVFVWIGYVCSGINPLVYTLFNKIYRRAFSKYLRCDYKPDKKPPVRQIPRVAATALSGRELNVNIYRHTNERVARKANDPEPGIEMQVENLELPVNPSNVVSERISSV
Assay: Radioligand binding, Rat 2C (Table I)

mol: Brc1cccc2c3c([nH]c12)CNCC3
Ki: 0.0224 µM

====

Target: cloned rat 5-HT2B receptor (Rattus norvegicus)
Construct: expressed in transfected cells
Sequence (P30994 whole entry): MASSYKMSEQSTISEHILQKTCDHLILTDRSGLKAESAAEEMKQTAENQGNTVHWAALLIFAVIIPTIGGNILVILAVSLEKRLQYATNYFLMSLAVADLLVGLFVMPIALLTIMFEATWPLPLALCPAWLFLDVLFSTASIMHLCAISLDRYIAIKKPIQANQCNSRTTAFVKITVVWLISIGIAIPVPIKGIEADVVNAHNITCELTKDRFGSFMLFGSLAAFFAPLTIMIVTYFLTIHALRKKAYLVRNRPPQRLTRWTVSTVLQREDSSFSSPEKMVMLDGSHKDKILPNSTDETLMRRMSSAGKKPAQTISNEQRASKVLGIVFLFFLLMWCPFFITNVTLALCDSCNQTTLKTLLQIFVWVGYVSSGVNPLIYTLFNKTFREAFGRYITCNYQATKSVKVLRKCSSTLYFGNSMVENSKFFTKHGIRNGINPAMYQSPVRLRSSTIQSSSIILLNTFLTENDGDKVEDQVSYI
Assay: Radioligand binding, [3H]5-HT, cloned rat 5-HT2B receptor (Table I)
Recorded Ki by entry
readout.type: Ki (nM)

molecule: COc1cccc2c3c([nH]c12)CNCC3 [Example 2]
readout.type: Ki
unit.abbreviation: nM
measurement: 34.5
//
molecule: Brc1cccc2c3c([nH]c12)CNCC3 [Example 10]
readout.type: Ki
unit.abbreviation: nM
measurement: 6.2
//
molecule: Fc1cc(F)c2[nH]c3c(c2c1)CCNC3 [Example 9]
readout.type: Ki
unit.abbreviation: nM
measurement: 57.9
//
molecule: COc1cccc2c3c([nH]c12)CN(CC1CC1)CC3 [Example 5]
readout.type: Ki
unit.abbreviation: nM
measurement: 97.5
//
molecule: COc1cccc2c3c([nH]c12)CN(C)CC3 [Example 4]
readout.type: Ki
unit.abbreviation: nM
measurement: 71.7
//
molecule: CCCN1CCc2c([nH]c3c(OC)cccc23)C1 [Example 3]
readout.type: Ki
unit.abbreviation: nM
measurement: 114

====

Recorded Ki by entry
Biological target: cloned rat 5-HT2B receptor (Rattus norvegicus)
Construct: expressed in transfected cells
Assay: Radioligand binding, [3H]5-HT, cloned rat 5-HT2B receptor (Table I)
Conditions: cloned rat 5-HT2B receptor, [3H]5-HT; Ki from IC50 by Cheng-Prusoff; read-out: Ki Rat 2B
Procedure: Radioligand Binding Studies Membrane preparation from transformed cells. Suspension cells expressing the cloned rat 5-HT2B receptor were harvested by centrifugation at 2,200 ×g for 15 min at 4° C. Kursar, J. D., D. L. Nelson, D. B. Wainscott, M. L. Cohen, and M. Baez, Mol. Pharmacol., 42: 549-557 (1992). Membranes for the binding assays were prepared by vortexing the pellet in 50 mM Tris-HCl, pH 7.4 (0.5×10^9 cells/30 ml). The tissue suspension was then centrifuged at 39,800 ×g for 10 min at 4° C. […]

mol: Cc1ccc2c3c([nH]c2c1Br)CNCC3
Ki [nM]: 3.17
//
mol: Cc1ccc2c3c([nH]c2c1C)CNCC3
Ki [nM]: 15.8
//
mol: Cc1cc(Br)c2[nH]c3c(c2c1)CCNC3
Ki [nM]: 14
//
mol: CN1CCc2c([nH]c3ccc(O)cc23)C1
Ki [nM]: 4610

====

Target: 5-HT2C receptor (Homo sapiens, UniProt P28335)
Sequence (P28335 33-458): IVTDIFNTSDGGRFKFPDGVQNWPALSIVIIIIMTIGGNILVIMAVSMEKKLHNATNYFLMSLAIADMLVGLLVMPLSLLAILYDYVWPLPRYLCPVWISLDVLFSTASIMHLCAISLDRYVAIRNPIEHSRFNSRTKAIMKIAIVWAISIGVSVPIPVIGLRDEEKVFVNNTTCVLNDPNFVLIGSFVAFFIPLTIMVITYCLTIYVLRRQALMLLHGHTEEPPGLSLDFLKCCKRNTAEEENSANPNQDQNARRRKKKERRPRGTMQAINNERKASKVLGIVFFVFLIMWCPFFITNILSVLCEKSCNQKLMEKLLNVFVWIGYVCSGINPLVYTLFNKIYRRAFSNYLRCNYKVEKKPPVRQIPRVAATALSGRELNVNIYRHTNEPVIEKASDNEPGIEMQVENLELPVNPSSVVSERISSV
Assay: Radioligand binding, Human 2C (Table I)
readout.type: Ki

molecule: Brc1cccc2c3c([nH]c12)CNCC3 [Example 10]
readout.type: Ki
measurement: 13.2 nM

====

Biological target: UniProt:P41595
Experiment: Radioligand binding, Human 2B (Table I)
Conditions: Human 2B; Ki from IC50 by Cheng-Prusoff; read-out: Ki Human 2B
pKi: −log10 of the molar value.

compound: Cc1cc(Br)c2[nH]c3c(c2c1)CCNC3 [Example 8]
pKi: 7.78

====

Target: 5-HT2B receptor (Homo sapiens, UniProt P41595)
Sequence (P41595 whole entry): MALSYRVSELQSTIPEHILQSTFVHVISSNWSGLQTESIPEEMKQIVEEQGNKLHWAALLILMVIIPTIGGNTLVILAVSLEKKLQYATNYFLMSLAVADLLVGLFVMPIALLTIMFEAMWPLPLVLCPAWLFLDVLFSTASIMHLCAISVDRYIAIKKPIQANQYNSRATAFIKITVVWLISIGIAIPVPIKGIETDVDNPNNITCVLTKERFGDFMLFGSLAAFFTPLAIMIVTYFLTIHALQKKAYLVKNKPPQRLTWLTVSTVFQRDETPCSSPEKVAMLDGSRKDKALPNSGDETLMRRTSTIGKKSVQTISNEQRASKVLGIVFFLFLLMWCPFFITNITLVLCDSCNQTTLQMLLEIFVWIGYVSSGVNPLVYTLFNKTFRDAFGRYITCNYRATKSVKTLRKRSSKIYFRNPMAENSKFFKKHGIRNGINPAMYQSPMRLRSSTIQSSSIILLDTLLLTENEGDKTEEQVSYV
Test: Radioligand binding, Human 2B (Table I)

mol: Brc1cccc2c3c([nH]c12)CNCC3
Ki / nM: 9.68
